This section presents compounds with their documented EC50 values.
tested on: HCV genotype 1b (Con1) replicon in HUH-7 cells; assay: HCV replicon luciferase reporter assay, genotype 1b; type: cell-based; conditions: Hepatitis C virus, 72 h, genotype 1b replicon, 3 days incubation, read-out: LE_1b (EC50, range)

{"substance-smiles": "COc1cc(F)cc2c(O[C@@H]3C[C@H]4C(=O)N[C@]5(C(=O)NS(=O)(=O)C6(CF)CC6)C[C@H]5/C=C\\CC[C@@H](C)O[C@@H](C)[C@H](NC(=O)OC(C)(C)C(F)(F)F)C(=O)N4C3)nccc12", "EC50": "0.51 to 1 nM"}

Please examine the following record next.
# get_value(readout='EC50', item= `CC[C@@H]1O[C@H](C)CC/C=C\[C@@H]2C[C@@]2(C(=O)NS(=O)(=O)C2(C)CC2)NC(=O)[C@@H]2C[C@@H](Oc3ncc(OC)c4ccccc34)CN2C(=O)[C@H]1NC(=O)OC(C)(C)C(F)F` )
0.1 to 0.5 nM

---

System: HCV genotype 1b (Con1) replicon in HUH-7 cells
Assay: HCV replicon luciferase reporter assay, genotype 1b
Type: cell-based
Conditions: Hepatitis C virus, 72 h, genotype 1b replicon, 3 days incubation, read-out: LE_1b (EC50, range)
Text: An HCV replicon whole cell system was established as described by Lohmann V, Korner F, Koch J, Herian U, Theilmann L, Bartenschlager R., Science 285(5424):110-3 (1999) and modified to introduce a luciferase reporter, as first described by Krieger et al (Krieger N, Lohmann V, and Bartenschlager R, J. Virol. 75(10):4614-4624 (2001)). […]
observable: EC50

Query the reported EC50 for HCV genotype 1b (Con1) replicon in HUH-7 cells; item: `CC[C@@H]1OCCC/C=C\[C@@H]2C[C@@]2(C(=O)NS(=O)(=O)C2(C)CC2)NC(=O)[C@@H]2C[C@@H](Oc3nc(OC)cc4cc(OC)ccc34)CN2C(=O)[C@H]1NC(=O)OC(C)(C)C(F)(F)F`
1.01 to 5 nM

And `CC[C@@H]1O[C@H](C)CC/C=C\[C@@H]2C[C@@]2(C(=O)NS(=O)(=O)C2(CF)CC2)NC(=O)[C@@H]2C[C@@H](Oc3nccc4cc(OC)c(F)cc34)CN2C(=O)[C@H]1NC(=O)OC(C)(C)C(F)(F)F` ?
1.01 to 5 nM

And `COc1cnc(O[C@@H]2C[C@H]3C(=O)N[C@]4(C(=O)NS(=O)(=O)C5(C)CC5)C[C@H]4/C=C\CC[C@@H](C)O[C@@H](C)[C@H](NC(=O)OC(C)(C)C(F)(F)F)C(=O)N3C2)c2ccccc12` ?
0.1 to 0.5 nM

---

This section presents molecules with their documented EC50 values.
system: HCV genotype 1b (Con1) replicon in HUH-7 cells; experiment: HCV replicon luciferase reporter assay, genotype 1b; format: cell-based; settings: Hepatitis C virus, 72 h, genotype 1b replicon, 3 days incubation, read-out: LE_1b (EC50, range)

In the examples that follow, each entry is paired with its recorded EC50.
{"molecule": "COc1cnc(O[C@@H]2C[C@H]3C(=O)N[C@]4(C(=O)NS(=O)(=O)C5(C)CC5)C[C@H]4/C=C\\CO[C@@H](C)C[C@@H](C)[C@H](NC(=O)OC(C)(C)C)C(=O)N3C2)c2ccccc12 [Compound 2601]", "EC50": "1010 to 5000 pM"}
{"molecule": "C[C@@H]1CC/C=C\\[C@@H]2C[C@@]2(C(=O)NS(=O)(=O)C2(C)CC2)NC(=O)[C@@H]2C[C@@H](Oc3nccc4c5c(ccc34)OCCO5)CN2C(=O)[C@@H](NC(=O)OC(C)(C)C(C)(F)F)[C@H](C)O1 [Compound 2010]", "EC50": "510 to 1000 pM"}
{"molecule": "COc1ccc2c(O[C@@H]3C[C@H]4C(=O)N[C@]5(C(=O)NS(=O)(=O)C6(C)CC6)C[C@H]5/C=C\\CC[C@@H](C)O[C@@H](C)[C@H](NC(=O)OC(C)(C)C(F)(F)F)C(=O)N4C3)nc(-c3ccc(OC(C)C)cn3)cc2c1 [Compound 2011]", "EC50": "100 to 500 pM"}

# get_value(readout='EC50', item= C[C@@H]1CC/C=C\[C@@H]2C[C@@]2(C(=O)NS(=O)(=O)C2(C)CC2)NC(=O)[C@@H]2C[C@@H](Oc3nc4c(c5ccccc35)CCCO4)CN2C(=O)[C@@H](NC(=O)OC(C)(C)C(F)F)[C@H](C)O1 [Compound 2304] )
510 to 1000 pM
